Kindly supply the reported IC50 values for the records listed here.
target: human PF4 (Homo sapiens, UniProt P02776); construct: PF4 is a 70 amino acid, lysine-rich 7.8 kDa platelet-specific protein; made in house; host or cells: Escherichia coli BL21DE3 pLysS (pT7-7) and/or Drosophila S2 cells; experiment: Inhibition of PF4 tetramer formation (BS3 cross-linking, SDS-PAGE); type: biochemical; conditions: read-out: IC50 of PF4 tetramer formation inhibition
Numbers only, in µM.

>>> reported_result("O=C(Cn1cnnn1)C1C(=O)c2ccc(S(=O)(=O)c3ccc4c(c3)C(=O)C(C(=O)Cn3cnnn3)C4=O)cc2C1=O (stereo not drawn)")
3
>>> reported_result("CC(C)(C)OC(=O)NCCC(=O)C1C(=O)c2ccc(C(=O)c3ccc4c(c3)C(=O)C(C(=O)CCNC(=O)OC(C)(C)C)C4=O)cc2C1=O (stereo not drawn)")
13
>>> reported_result("O=C(c1ccc2c(c1)C(=O)C(C(=O)[C@@H]1C[C@H]1C(=O)O)C2=O)c1ccc2c(c1)C(=O)C(C(=O)[C@@H]1C[C@H]1C(=O)O)C2=O (stereo in doubt)")
1.4
>>> reported_result("CN(CC(=O)C1C(=O)c2ccc(Oc3ccc4c(c3)C(=O)C(C(=O)CN(C)C(=O)OC(C)(C)C)C4=O)cc2C1=O)C(=O)OC(C)(C)C (stereo not drawn)")
2.07
>>> reported_result("CC(C)(C)OC(=O)N1CCC[C@H]1C(=O)C1C(=O)c2ccc(C(c3ccc4c(c3)C(=O)C(C(=O)[C@@H]3CCCN3C(=O)OC(C)(C)C)C4=O)(C(F)(F)F)C(F)(F)F)cc2C1=O (stereo partly drawn)")
4

The record that follows has no IC50 shown yet.
Entry under test: CC(=O)C1C(=O)c2ccc(S(=O)(=O)c3ccc4c(c3)C(=O)C(C(C)=O)C4=O)cc2C1=O (stereo not drawn) . Its IC50 was 18

----------
test: Experimentally determined pKa; format: physicochemical
QUANTITY_MEASURED: pKa
Answers are plain numbers.

// field: pKa; key: CC(=O)C1C(=O)c2ccc(C(=O)c3ccc4c(c3)C(=O)C(C(C)=O)C4=O)cc2C1=O (stereo not shown) ; value = 1.99

----------
Could you please report measured pIC50 for the items listed next?
Biological target: human PF4 (Homo sapiens)
Construct: PF4 is a 70 amino acid, lysine-rich 7.8 kDa platelet-specific protein; made in house; host or cells: Escherichia coli BL21DE3 pLysS (pT7-7) and/or Drosophila S2 cells
Sequence (P02776 32-101): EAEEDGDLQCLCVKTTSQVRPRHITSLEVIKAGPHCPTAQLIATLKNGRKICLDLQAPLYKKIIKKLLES
Assay: Inhibition of PF4 tetramer formation (BS3 cross-linking, SDS-PAGE)
Type: biochemical
Settings: read-out: IC50 of PF4 tetramer formation inhibition
Numbers only, as −log10 of the molar value.

Recorded pIC50, per entry:
>>> reported_result("C[C@H]1C[C@@H](C(=O)C2C(=O)c3ccc(S(=O)(=O)c4ccc5c(c4)C(=O)C(C(=O)[C@@H]4C[C@H](C)CN4C(=O)OC(C)(C)C)C5=O)cc3C2=O)N(C(=O)OC(C)(C)C)C1 (stereo partly drawn)")
5.66
>>> reported_result("CC(C)(C)OC(=O)NCC(=O)C1C(=O)c2ccc(C(c3ccc4c(c3)C(=O)C(C(=O)CNC(=O)OC(C)(C)C)C4=O)(C(F)(F)F)C(F)(F)F)cc2C1=O (stereo not drawn)")
5.55
>>> reported_result("CC(C)C[C@@H](N)C(=O)C1C(=O)c2ccc(Oc3ccc4c(c3)C(=O)C(C(=O)[C@H](N)CC(C)C)C4=O)cc2C1=O (stereo partly drawn)")
5.87

Dear colleague, could you send me pIC50 for each of the items below? Thanks.
1. O=C(c1ccc2c(c1)C(=O)C(C(=O)Nc1cccc(Cl)c1)C2=O)c1ccc2c(c1)C(=O)C(C(=O)Nc1cccc(Cl)c1)C2=O (stereo not drawn)
2. CC(C)(C)OC(=O)N1CSC[C@@H]1C(=O)C1C(=O)c2ccc(S(=O)(=O)c3ccc4c(c3)C(=O)C(C(=O)[C@H]3CSCN3C(=O)OC(C)(C)C)C4=O)cc2C1=O (stereo partly drawn)
3. O=C(NC1CCCC1)C1C(=O)c2ccc(S(=O)(=O)c3ccc4c(c3)C(=O)C(C(=O)NC3CCCC3)C4=O)cc2C1=O (stereo not drawn)
4. O=C(Nc1ccc(Cl)cc1)C1C(=O)c2ccc(S(=O)(=O)c3ccc4c(c3)C(=O)C(C(=O)Nc3ccc(Cl)cc3)C4=O)cc2C1=O (stereo not drawn)
5. CO[C@@H](C(=O)C1C(=O)c2ccc(C(=O)c3ccc4c(c3)C(=O)C(C(=O)[C@H](OC)c3ccccc3)C4=O)cc2C1=O)c1ccccc1 (stereo partly drawn)
6. CCOC(=O)CCNC(=O)C1C(=O)c2ccc(C(=O)c3ccc4c(c3)C(=O)C(C(=O)NCCC(=O)OCC)C4=O)cc2C1=O (stereo not drawn)
7. CC(C)(C)OC(=O)N[C@@H](C(=O)C1C(=O)c2ccc(S(=O)(=O)c3ccc4c(c3)C(=O)C(C(=O)[C@H](NC(=O)OC(C)(C)C)c3ccccc3)C4=O)cc2C1=O)c1ccccc1 (stereo partly drawn)

1: 6.00; 2: 5.64; 3: 5.71; 4: 5.60; 5: 5.40; 6: 4.97; 7: 5.24

Reported pIC50 ( COc1cccc(NC(=O)C2C(=O)c3ccc(C(=O)c4ccc5c(c4)C(=O)C(C(=O)Nc4cccc(OC)c4)C5=O)cc3C2=O)c1 (stereo not drawn) ) = 5.76

----------
Target: human PF4 (Homo sapiens, UniProt P02776)
Construct: PF4 is a 70 amino acid, lysine-rich 7.8 kDa platelet-specific protein; made in house; host or cells: Escherichia coli BL21DE3 pLysS (pT7-7) and/or Drosophila S2 cells
Sequence (P02776 32-101): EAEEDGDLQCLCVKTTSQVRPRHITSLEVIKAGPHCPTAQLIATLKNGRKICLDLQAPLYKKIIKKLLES
Assay: Inhibition of PF4 tetramer formation (BS3 cross-linking, SDS-PAGE)
Type: biochemical
Settings: 10 μM inhibitor (column A); read-out: % inhibition of PF4 tetramer formation at single concentration of inhibitor
What inhibition at 10 µM was measured for each of the following?
Give bare numbers, in %.

>>> reported_result("C[C@H]1C[C@@H](C(=O)C2C(=O)c3ccc(S(=O)(=O)c4ccc5c(c4)C(=O)C(C(=O)[C@@H]4C[C@H](C)CN4C(=O)OC(C)(C)C)C5=O)cc3C2=O)N(C(=O)OC(C)(C)C)C1 (stereo partly drawn)")
95
>>> reported_result("Cc1ccc(NC(=O)C2C(=O)c3ccc(C(=O)c4ccc5c(c4)C(=O)C(C(=O)Nc4ccc(C)cc4)C5=O)cc3C2=O)cc1 (stereo not drawn)")
35
>>> reported_result("CCC(=O)C1C(=O)c2ccc(C(=O)c3ccc4c(c3)C(=O)C(C(=O)CC)C4=O)cc2C1=O (stereo not drawn)")
35
>>> reported_result("COCCOCCC(=O)C1C(=O)c2ccc(S(=O)(=O)c3ccc4c(c3)C(=O)C(C(=O)CCOCCOC)C4=O)cc2C1=O (stereo not drawn)")
75
>>> reported_result("CO[C@@H]1O[C@H](C(=O)C2C(=O)c3ccc(S(=O)(=O)c4ccc5c(c4)C(=O)C(C(=O)[C@H]4O[C@@H](OC)[C@H]6OC(C)(C)O[C@@H]64)C5=O)cc3C2=O)[C@H]2OC(C)(C)O[C@H]12 (stereo partly drawn)")
92

Give measured inhibition at 10 µM for every item shown.
1. O=C(c1ccc2c(c1)C(=O)C(C(=O)NC1CCCC1)C2=O)c1ccc2c(c1)C(=O)C(C(=O)NC1CCCC1)C2=O (stereo not drawn)
2. O=C(NC1CCCC1)C1C(=O)c2ccc(C(c3ccc4c(c3)C(=O)C(C(=O)NC3CCCC3)C4=O)(C(F)(F)F)C(F)(F)F)cc2C1=O (stereo not drawn)
3. CC(C)CCCC(=O)C1C(=O)c2ccc(S(=O)(=O)c3ccc4c(c3)C(=O)C(C(=O)CCCC(C)C)C4=O)cc2C1=O (stereo not drawn)
4. C[C@H]1C[C@@H](C(=O)C2C(=O)c3ccc(C(=O)c4ccc5c(c4)C(=O)C(C(=O)[C@@H]4C[C@H](C)CN4C(=O)OC(C)(C)C)C5=O)cc3C2=O)N(C(=O)OC(C)(C)C)C1 (stereo partly drawn)
5. CCC(=O)C1C(=O)c2ccc(S(=O)(=O)c3ccc4c(c3)C(=O)C(C(=O)CC)C4=O)cc2C1=O (stereo not drawn)
6. C[C@H](NC(=O)OC(C)(C)C)C(=O)C1C(=O)c2ccc(C(=O)c3ccc4c(c3)C(=O)C(C(=O)[C@H](C)NC(=O)OC(C)(C)C)C4=O)cc2C1=O (stereo partly drawn)
7. CC[C@H](NC(=O)OCc1ccccc1)C(=O)C1C(=O)c2ccc(S(=O)(=O)c3ccc4c(c3)C(=O)C(C(=O)[C@H](CC)NC(=O)OCc3ccccc3)C4=O)cc2C1=O (stereo partly drawn)

1. 85
2. 59
3. 75
4. 88
5. 34
6. 92
7. 84
